# Assay Summary: Drug level in mouse brain at 30 mg/kg, ip after 2 hrs
# Assay type: ADME, organism-based
# Set-up: dose 30 mg/kg, route intraperitoneal
# Settings: read-out: Drug uptake
Measured Attribute: concentration at 2 h (nM)
API: value field is a number in nM; no unit string.

Quick one: concentration at 2 h for CC1CCc2cccc(c2)C[C@@](C)(N)C(=O)OCc2cc(nc(N(C)S(C)(=O)=O)c2)CC1 (stereo partly specified) ?
637

====

# Tested on: P-glycoprotein
# Assay Summary: Apparent permeability in human KBV1 cells overexpressing P-glycoprotein
# Format: ADME, cell-based, KB-V1
Measured Papp of individual entries
The reply should read as a number followed by its unit.

Example compounds with recorded Papp:
Compound	Target Desc	Papp
CC1CCc2cccc(c2)C[C@@](C)(N)C(=O)OCc2cc(nc(N(C)S(C)(=O)=O)c2)CC1 (some centres not stated)	P-glycoprotein	14 ×10⁻⁶ cm/s
CN(c1cc2cc(n1)N(CC1CC1)CCCCc1cccc(c1)C[C@@](C)(N)C(=O)OC2)S(C)(=O)=O	P-glycoprotein	8 ×10⁻⁶ cm/s
CC1CCc2cccc(c2)C[C@@](C)(N)C(=O)OCc2cc(cc(N(C)S(C)(=O)=O)c2)CC1 (some centres not stated)	P-glycoprotein	16 ×10⁻⁶ cm/s
CN(c1cc2cc(n1)CCCCCc1cccc(c1)C[C@@](C)(N)C(=O)OC2)S(C)(=O)=O	P-glycoprotein	29 ×10⁻⁶ cm/s
CN(c1cc2cc(n1)N(Cc1ccccc1)CCCCc1cccc(c1)C[C@@](C)(N)C(=O)OC2)S(C)(=O)=O	P-glycoprotein	20 ×10⁻⁶ cm/s

So what's the measured Papp for this one? CN(c1cc2cc(n1)CCC(c1ccccc1)CCc1cccc(c1)C[C@@](C)(N)C(=O)OC2)S(C)(=O)=O (some centres not stated)
9 ×10⁻⁶ cm/s

Same for CN(c1cc2cc(n1)NCCCCc1cccc(c1)C[C@@](C)(N)C(=O)OC2)S(C)(=O)=O
11 ×10⁻⁶ cm/s
